assay overview: E. coli acrAB mutant growth effects, primary screen, E. coli filamentation inducers, strain DRC39, OD650, 24 h (AID 1178);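 further: growth measured as culture turbidity by optical density at 650 nm; test concentration not given here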
recorded conditions: higher = more signal, called active from +8 up or from −8 down
metric name: z-score
Write no unit; give the number alone.

[
  {
    "compound": "Cc1ccc(S[C@]2(C(=O)NCCN3CCOCC3)CC(=O)N(Cc3ccccc3)[C@@H]2c2ccc(CO)cc2I)cc1",
    "z-score": 0.359
  },
  {
    "compound": "[N-]=[N+]=NCc1ccccc1[C@@H]1OC(c2ccc(OCCCO)cc2)=N[C@]1(Cc1ccccc1N=[N+]=[N-])C(=O)N1CCOCC1",
    "z-score": -0.38
  },
  {
    "compound": "O=C(NCc1ccc(F)cc1)[C@H]1C[C@H]2C(=O)N[C@@H](Cc3ccccc3)C(=O)N2[C@H]1c1ccc(O)cc1",
    "z-score": 0.222
  }
]

# next compound below
Q. Would you kindly share the measured z-score for CCOC(=O)C1=CCC(c2ccc(C)cc2)N(S(=O)(=O)c2ccc(C)cc2)C1 (centres undefined) ?
A. -0.764

###

assay overview: CREB reporter modulators without forskolin, primary screen, cell-based, PC12, CRE-LacZ reporter, unstimulated (AID 1145)
recorded conditions: no forskolin, luminescence, 4.5 h, higher = more signal, called active from +8 up or from −8 down
Measured z-score, listed per entry for reference.
Output spec: single numeric token, no unit.

[
  {
    "molecule": "CCOC(=O)C[C@H]1[C@H](OC(=O)Cc2ccc3c(c2)OCO3)[C@@H](NC(=O)c2ccc3ccccc3c2)c2cc(OCCCO)ccc2N1C(=O)c1ccccc1",
    "z-score": 4.07
  },
  {
    "molecule": "COC(=O)c1c(CC[C@@H](CO)NC(=O)N[C@H](Cn2cc(Cc3ccccc3)nn2)C(C)C)oc(C(C)=O)c1C(=O)OC",
    "z-score": 0.904
  },
  {
    "molecule": "C[C@@H]1ON(c2cccc(C(=O)OC(C)(C)C)c2)[C@H](c2ccc(Br)cc2)[C@H]1C(=O)N1C(=O)OC[C@H]1Cc1ccccc1",
    "z-score": 1.49
  },
  {
    "molecule": "O=C1O[C@H](c2ccccc2)[C@H](c2ccccc2)N2[C@H]1[C@@H](C(=O)Nc1nc3ccccc3s1)[C@]1(C(=O)Nc3ccc(C#CCCO)cc31)[C@H]2c1ccc(OCCO)cc1",
    "z-score": -0.471
  },
  {
    "molecule": "COC(=O)C=C(CC(O)c1cccc(Cl)c1)OC (configuration not stated)",
    "z-score": -0.116
  }
]

Q. Fill in: z-score of COc1ccc(C(=O)Nc2ccc(CN3C(=O)[C@@]4(O[C@@H](CCO)[C@H]([Si](C)(C)c5ccc(OC)cc5)[C@H]4C)c4ccccc43)cc2)cc1 is ___
A. 3.11

Q. Need z-score, item C=CC[C@@]1(C(=O)NCc2ccccc2)N=C(c2ccc(OCCCO)cc2)O[C@@H]1c1ccccc1N=[N+]=[N-]
A. 3.85

###

# key: entry, value: z-score
assay overview: E. coli acrAB mutant growth effects, primary screen, E. coli filamentation inducers, strain DRC39, OD650, 48 h (AID 1179);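 further: screen aims at cell division blockers that make cells filament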
recorded conditions: E. coli DRC39 delta-acrAB growth, higher = more signal, called active from +8 up or from −8 down
API doc: respond with a numeric literal and nothing else, no unit.

The following molecules have reported results that may help.
[
  {
    "molecule": "CCCC[C@H]1OB(O)C[C@H]2C1=C(COc1ccccc1)C[C@H]1C(=O)N(C)C(=O)[C@H]12",
    "z-score": -0.316
  },
  {
    "molecule": "COC(=O)C=C(CC(O)c1cccc(Cl)c1)OC (stereo not drawn)",
    "z-score": 0.861
  },
  {
    "molecule": "CCc1oc(CC[C@@H](CO)NC(=O)NCCn2cc(C3(O)CCCCC3)nn2)c(C(=O)OC)c1C(=O)OC",
    "z-score": -0.64
  },
  {
    "molecule": "COCCOC(=O)N1C(=O)[C@@]2(c3cc(C#CC4=CCCCC4)ccc31)[C@H](C(=O)Nc1nc3ccccc3s1)[C@H]1C(=O)O[C@H](c3ccccc3)[C@H](c3ccccc3)N1[C@@H]2c1ccccc1OCCO",
    "z-score": -0.883
  },
  {
    "molecule": "COC(=O)C(CC#Cc1ccc2c(c1)[C@]1(C(=O)N2)[C@H](c2ccc(O)cc2)N2[C@H](c3ccccc3)[C@H](c3ccccc3)OC(=O)[C@H]2[C@@H]1C(=O)Nc1nc2ccccc2s1)C(=O)OC",
    "z-score": 1.04
  }
]

Q. Record request: z-score value, item O=C1O[C@H](c2ccccc2)[C@H](c2ccccc2)N2[C@H]1[C@@H](C(=O)O)[C@]1(C(=O)Nc3ccc(C#CCCO)cc31)[C@H]2c1ccc(O)cc1
A. 1.69

Q. Give the measured z-score of COC(=O)[C@@]1(Cc2ccc(F)cc2)[C@H]2c3cc(C(=O)N(C)C)n(Cc4ccc(S(C)(=O)=O)cc4)c3C[C@H]2CN1C(=O)c1ccccc1 .
A. 0.118

Q. Look up z-score: COc1ccc([Si](C)(C)[C@H]2[C@H](CC(=O)N3CCC[C@H]3CO)O[C@@]3(C(=O)N(Cc4cccc(N5C(=O)c6cccc7cccc5c67)c4)c4ccccc43)[C@@H]2C)cc1
A. -0.881

Q. // returns reported z-score for input C=CCOC(=O)[C@H]1[C@@H]2C(=O)O[C@@H](c3ccccc3)[C@@H](c3ccccc3)N2[C@@H](c2ccc(OCCOC(=O)[C@H]3C[C@H]4C(=O)N[C@@H](CC(C)C)C(=O)N4[C@H]3c3ccc(O)cc3)cc2)[C@]12C(=O)Nc1ccc(I)cc12
A. 0.276

Q. For the molecule O=C1OCCC/C=C\[C@H]2OC34C=CCN(Cn5nnc6ccccc65)C(=O)[C@H]3N(CCO)C(=O)[C@@H]4C12 (stereo partly drawn) , what z-score is on record?
A. -0.146

Q. Any idea what its z-score is? The molecule is COC(=O)C(CC#Cc1ccc2c(c1)[C@]1(C(=O)N2)[C@H](C(=O)O)[C@H]2C(=O)O[C@H](c3ccccc3)[C@H](c3ccccc3)N2[C@@H]1c1ccc(O)cc1)C(=O)OC
A. -0.0012

Q. Suppose we examine the molecule COCCOC(=O)N1C(=O)[C@@]2(c3cc(C#Cc4ccc(OC)cc4)ccc31)[C@H](c1ccccc1OCCO)N1[C@H](c3ccccc3)[C@H](c3ccccc3)OC(=O)[C@H]1[C@@H]2C(=O)N1CCN(c2ncccn2)CC1 ; what z-score value has been reported?
A. 0.857

Q. Suppose we examine the molecule CC1CC/C=C\[C@H]2OC34C=CCN(Cn5nnc6ccccc65)C(=O)[C@H]3N(C(CO)C(C)C)C(=O)[C@@H]4C2C(=O)O1 (stereo partly drawn) ; what z-score value has been reported?
A. 0.275

###

System: glycogen synthase kinase-3 (GSK3A per assay name; protocol says GSK3B)
assay overview: GSK3 binders on small-molecule microarrays, primary screen, biochemical, small-molecule microarray, 635 nm fluorescence, GSK3A (AID 1103); further: the record names both GSK3A and GSK3B
recorded conditions: small-molecule microarray binding, fluorescence 635 nm; higher = more signal
Cut-off 0.09 on composite z-score, inclusive. At or above means Fulfilled; below means Not fulfilled.

Known results for molecules:
[
  {
    "molecule": "COC(=O)[C@@]1(Cc2ccc(OC)cc2)[C@H]2c3cc(C(=O)N4CCCC4)n(Cc4ccsc4Br)c3C[C@H]2CN1C(=O)c1ccccc1",
    "cat": "Fulfilled"
  },
  {
    "molecule": "O=C1C2C=CC(C(O)c3ccc(F)cc3)N(Nc3ccccc3F)C2C(=O)N1c1ccccc1 (stereo not given)",
    "cat": "Not fulfilled"
  }
]

Q. Could you tell me if the measured composite z-score of O=C1NC(=O)C2C1C=CC(C(O)C(c1ccccc1)c1ccccc1)N2Nc1ccc(Cl)cc1Cl (stereo not given) reaches 0.09 or more?
A. Fulfilled

Q. Check if composite z-score >= 0.09 (inclusive). Item: CCc1oc(CC[C@@H](CO)NC(=O)NCCn2cc(C3(O)CCCCC3)nn2)c(C(=O)OC)c1C(=O)OC
A. Fulfilled

Q. Threshold query (composite z-score >= 0.09) on COC(=O)[C@@]1(Cc2ccc(OC)cc2)[C@H]2c3cc(C(=O)N(C)C)n(CCN4CNCC4=O)c3C[C@H]2CN1C(=O)c1ccccc1
A. Not fulfilled

Q. Test whether the molecule O=C1c2ccccc2[C@@]2(Cc3ccccc3N(CCN3CCOCC3)C2=O)[C@H](c2ccc(CO)cc2)N1Cc1ccccc1 records composite z-score of 0.09 or higher.
A. Not fulfilled

Q. Kindly determine if composite z-score recorded for CCCC#C[Si](O[C@H](CC)c1cn([C@H](CO)Cc2ccccc2)nn1)(C(C)C)C(C)C is above or exactly 0.09.
A. Fulfilled

Q. Reported composite z-score at or above 0.09? O=C1O[C@H](c2ccccc2)[C@H](c2ccccc2)N2[C@H]1[C@@H](C(=O)O)[C@]1(C(=O)Nc3ccc(C#CCCO)cc31)[C@H]2c1ccc(O)cc1
A. Not fulfilled

Q. Quick check, composite z-score >= 0.09? O=C(O)[C@@]1(CCS(=O)(=O)c2ccccc2)COC(c2ccc(OCCCO)cc2)=N1
A. Not fulfilled

Just for reference, PubChem BioAssay is where these values come from.
